- test-system: wild type (WT) MET kinase (Homo sapiens)
- Construct: purchased Carna 08-151
- Sequence (P08581 25-1390): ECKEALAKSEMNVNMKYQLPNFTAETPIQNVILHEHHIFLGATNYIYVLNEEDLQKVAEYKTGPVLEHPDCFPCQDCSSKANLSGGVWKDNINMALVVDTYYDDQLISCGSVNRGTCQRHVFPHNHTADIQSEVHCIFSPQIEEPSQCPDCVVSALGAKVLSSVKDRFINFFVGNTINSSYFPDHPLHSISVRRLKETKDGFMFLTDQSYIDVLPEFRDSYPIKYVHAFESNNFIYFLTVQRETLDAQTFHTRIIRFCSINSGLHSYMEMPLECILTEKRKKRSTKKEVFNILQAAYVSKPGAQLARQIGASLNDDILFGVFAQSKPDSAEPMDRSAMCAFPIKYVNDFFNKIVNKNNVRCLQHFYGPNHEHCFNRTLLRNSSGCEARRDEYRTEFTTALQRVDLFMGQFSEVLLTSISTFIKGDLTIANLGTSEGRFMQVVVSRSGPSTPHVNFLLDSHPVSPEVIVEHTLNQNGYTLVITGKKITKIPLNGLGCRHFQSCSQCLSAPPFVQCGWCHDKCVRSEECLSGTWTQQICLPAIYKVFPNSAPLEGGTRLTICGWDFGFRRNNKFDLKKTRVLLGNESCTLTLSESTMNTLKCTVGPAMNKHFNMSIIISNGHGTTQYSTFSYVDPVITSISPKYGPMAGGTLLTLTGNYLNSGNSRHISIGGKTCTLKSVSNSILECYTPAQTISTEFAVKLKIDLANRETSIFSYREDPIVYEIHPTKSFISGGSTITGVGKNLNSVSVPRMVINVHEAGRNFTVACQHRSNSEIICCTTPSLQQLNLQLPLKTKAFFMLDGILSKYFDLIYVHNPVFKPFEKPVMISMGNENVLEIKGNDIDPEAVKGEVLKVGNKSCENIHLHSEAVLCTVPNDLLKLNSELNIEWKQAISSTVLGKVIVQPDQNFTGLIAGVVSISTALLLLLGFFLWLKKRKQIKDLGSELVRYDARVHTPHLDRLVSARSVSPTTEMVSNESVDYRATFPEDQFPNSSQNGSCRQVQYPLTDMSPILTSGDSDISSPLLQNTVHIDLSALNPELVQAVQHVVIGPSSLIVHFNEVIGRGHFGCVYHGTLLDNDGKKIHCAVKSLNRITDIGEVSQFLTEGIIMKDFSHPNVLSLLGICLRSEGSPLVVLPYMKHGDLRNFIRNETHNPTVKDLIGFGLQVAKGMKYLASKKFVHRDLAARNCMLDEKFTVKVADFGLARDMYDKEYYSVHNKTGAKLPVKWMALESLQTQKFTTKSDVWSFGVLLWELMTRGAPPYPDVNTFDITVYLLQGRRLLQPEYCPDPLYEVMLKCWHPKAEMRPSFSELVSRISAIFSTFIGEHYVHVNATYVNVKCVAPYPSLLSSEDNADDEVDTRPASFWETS
- method-notes: Kinase inhibition experiment (HTRF KinEASE-TK kit), wild-type MET
- Format: biochemical
- experimental-conditions: 10 concentrations, 3-fold dilution
Binarize IC50 at 3 nM; below is criterion met, at or above is criterion not met.

Worked set:
[[record]]
molecule = "C[C@H](CO)Nc1n[nH]c2nccc(Oc3ccc(NC(=O)c4ccc(C#N)c(-c5ccc(F)cc5)[n+]4[O-])cc3F)c12"
assigned_label = "criterion not met"

[[record]]
molecule = "O=C(Nc1ccc(Oc2ccnc3[nH]nc(NCC4(CO)CC(O)C4)c23)c(F)c1)c1cccc(-c2ccc(F)cc2)[n+]1[O-] (centres unmarked)"
assigned_label = "criterion not met"

[[record]]
molecule = "O=C(Nc1ccc(Oc2ncnc3ccn(CCCO)c23)c(F)c1)c1cccc(-c2ccc(F)cc2)[n+]1[O-]"
assigned_label = "criterion not met"


Problem: For the molecule CC(O)C1CN(c2n[nH]c3nccc(Oc4ccc(NC(=O)c5cccc(-c6ccc(F)cc6)[n+]5[O-])cc4Cl)c23)C1 (centres unmarked) , is IC50 under 3 nM?
criterion met

---

Entries and their measured IC50 follow.
- test-system: MET D1228N (Homo sapiens, UniProt P08581, D1228N)
- Construct: purchased Signalchem M52-12IG
- Sequence (P08581 25-1390 D1228N): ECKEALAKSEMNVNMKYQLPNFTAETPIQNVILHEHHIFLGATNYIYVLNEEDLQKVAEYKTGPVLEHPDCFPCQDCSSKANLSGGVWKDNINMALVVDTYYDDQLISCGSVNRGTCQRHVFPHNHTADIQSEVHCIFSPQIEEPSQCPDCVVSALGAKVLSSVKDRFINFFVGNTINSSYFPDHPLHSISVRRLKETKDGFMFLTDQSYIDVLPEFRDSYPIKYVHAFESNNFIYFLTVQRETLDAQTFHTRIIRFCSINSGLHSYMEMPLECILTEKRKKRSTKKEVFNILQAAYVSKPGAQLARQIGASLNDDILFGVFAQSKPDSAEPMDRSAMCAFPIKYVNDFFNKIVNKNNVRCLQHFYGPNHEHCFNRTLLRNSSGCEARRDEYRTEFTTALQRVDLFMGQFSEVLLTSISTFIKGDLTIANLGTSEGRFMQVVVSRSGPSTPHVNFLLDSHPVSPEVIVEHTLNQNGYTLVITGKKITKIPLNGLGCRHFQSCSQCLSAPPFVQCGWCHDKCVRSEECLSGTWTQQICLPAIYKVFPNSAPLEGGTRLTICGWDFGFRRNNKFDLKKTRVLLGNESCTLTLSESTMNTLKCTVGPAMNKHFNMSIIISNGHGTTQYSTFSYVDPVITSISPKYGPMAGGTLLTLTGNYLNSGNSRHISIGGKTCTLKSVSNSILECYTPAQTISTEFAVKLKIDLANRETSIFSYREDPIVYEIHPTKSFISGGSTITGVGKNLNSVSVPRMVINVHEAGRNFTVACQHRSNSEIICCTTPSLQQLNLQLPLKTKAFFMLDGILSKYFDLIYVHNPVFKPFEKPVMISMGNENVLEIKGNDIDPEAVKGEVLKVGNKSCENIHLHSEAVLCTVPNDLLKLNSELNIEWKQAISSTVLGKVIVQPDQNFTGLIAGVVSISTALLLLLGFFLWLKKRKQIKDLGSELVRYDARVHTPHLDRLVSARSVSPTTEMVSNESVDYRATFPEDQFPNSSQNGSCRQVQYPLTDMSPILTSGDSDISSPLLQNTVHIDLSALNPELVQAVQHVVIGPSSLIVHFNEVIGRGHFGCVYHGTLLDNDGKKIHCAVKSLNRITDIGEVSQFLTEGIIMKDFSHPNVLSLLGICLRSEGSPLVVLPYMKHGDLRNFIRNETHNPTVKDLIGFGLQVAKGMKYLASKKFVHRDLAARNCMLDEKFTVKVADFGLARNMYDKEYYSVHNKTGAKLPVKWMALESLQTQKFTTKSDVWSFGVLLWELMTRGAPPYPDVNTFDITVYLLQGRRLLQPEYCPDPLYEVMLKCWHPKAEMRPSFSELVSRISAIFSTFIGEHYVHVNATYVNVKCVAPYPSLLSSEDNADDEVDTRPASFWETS
- method-notes: Kinase inhibition experiment (HTRF KinEASE-TK kit), mutant MET D1228N
- Assay type: biochemical
- experimental-conditions: 10 concentrations, 3-fold dilution
# output: bare number, implied unit nM

Examples with answers:
[[record]]
compound = "C[C@H](CO)Nc1n[nH]c2nccc(Oc3ccc(NC(=O)c4ccc(C5CC5)c(-c5ccc(F)cc5)[n+]4[O-])cc3F)c12"
outcome_measure = "IC50"
endpoint_value = 32.8

[[record]]
compound = "O=C(Nc1ccc(Oc2ccnc3[nH]nc(NC4(CO)CC4)c23)c(F)c1)c1cccc(-c2ccc(F)cc2)[n+]1[O-]"
outcome_measure = "IC50"
endpoint_value = 25.5


Quickly give me recorded IC50 for COc1ccc(C(=O)Nc2ccc(Oc3ccnc4[nH]nc(N[C@H](C)CO)c34)c(F)c2)[n+]([O-])c1-c1ccc(F)cc1
10.5

For the compound Cc1ccc(C(=O)Nc2ccc(Oc3ccnc4[nH]nc(N[C@H](C)CO)c34)c(Cl)c2)[n+]([O-])c1-c1ccc(F)cc1 , report IC50.
7.6

Supply measured IC50 of CC(O)C1CCN(c2n[nH]c3nccc(Oc4ccc(NC(=O)c5cccc(-c6ccc(F)cc6)[n+]5[O-])cc4F)c23)CC1 (stereo not drawn) in your reply.
40.7

Tell me IC50 reported for CC[C@H](CO)Nc1n[nH]c2nccc(Oc3ccc(NC(=O)c4cccc(-c5ccc(F)cc5)[n+]4[O-])cc3F)c12
12.8

Please supply the value of reported IC50 for the item Cc1ccc(C(=O)Nc2ccc(Oc3ccnc4[nH]nc(NCC5(O)CC5)c34)c(F)c2)[n+]([O-])c1-c1ccc(F)cc1
35.5

Give the reported value of IC50 for this record: O=C(Nc1ccc(Oc2ccnc3[nH]nc(N4CCC(CO)CC4)c23)c(F)c1)c1cccc(-c2ccc(F)cc2)[n+]1[O-]
34.5

Annotate the compound O=C(Nc1ccc(Oc2ncnc3ccn(CCCO)c23)c(F)c1)c1cccc(-c2ccc(F)cc2)[n+]1[O-] with its measured IC50.
13.9

Return value of IC50 for input CC[C@H](CO)Nc1n[nH]c2nccc(Oc3ccc(NC(=O)c4ccc(Cl)c(-c5ccc(F)cc5)[n+]4[O-])cc3F)c12 , no commentary.
15.9

Identify IC50 associated with the compound CCC(CO)Nc1n[nH]c2nccc(Oc3ccc(NC(=O)c4cccc(-c5ccc(F)cc5)[n+]4[O-])cc3F)c12 (stereo not drawn)
15.7

Provide measured IC50 value, entry: C[C@H](CO)Nc1n[nH]c2nccc(Oc3ccc(NC(=O)c4ccc(Cl)c(-c5ccc(F)cc5Cl)[n+]4[O-])cc3F)c12
11

---

- test-system: MET D1228N (Homo sapiens, UniProt P08581, D1228N)
- Construct: purchased Signalchem M52-12IG
- method-notes: Kinase inhibition experiment (HTRF KinEASE-TK kit), mutant MET D1228N
- Format: biochemical
- experimental-conditions: 10 concentrations, 3-fold dilution
Below, each of the molecules is paired with its reported IC50 value.
Unit nM implied. Number only.

Past entries and their recorded results:
[[record]]
molecule = "O=C(Nc1ccc(Oc2ccnc3[nH]nc(N4CCC[C@H](CO)C4)c23)c(F)c1)c1cccc(-c2ccc(F)cc2)[n+]1[O-] [Final product 33]"
test_system = "MET D1228N (Homo sapiens, UniProt P08581, D1228N)"
result_units = "nM"
endpoint_value = 30.5

[[record]]
molecule = "C[C@H](CO)Nc1n[nH]c2nccc(Oc3ccc(NC(=O)c4ccc(F)c(-c5ccc(F)cc5)[n+]4[O-])cc3F)c12 [Final product 53]"
test_system = "MET D1228N (Homo sapiens, UniProt P08581, D1228N)"
result_units = "nM"
endpoint_value = 4.8

[[record]]
molecule = "O=C(Nc1ccc(Oc2ccnc3[nH]nc(N4CCC[C@@H](CO)C4)c23)c(F)c1)c1cccc(-c2ccc(F)cc2)[n+]1[O-] [Final product 32]"
test_system = "MET D1228N (Homo sapiens, UniProt P08581, D1228N)"
result_units = "nM"
endpoint_value = 16.7

[[record]]
molecule = "C[C@H](CO)Nc1n[nH]c2nccc(Oc3ccc(NC(=O)c4ccc(Cl)c(-c5ccc(F)cc5)[n+]4[O-])cc3F)c12 [Final product 57]"
test_system = "MET D1228N (Homo sapiens, UniProt P08581, D1228N)"
result_units = "nM"
endpoint_value = 28.5


Indicate the recorded IC50 value for this molecule: O=C(Nc1ccc(Oc2ccnc3[nH]nc(N[C@H]4COC[C@@H]4O)c23)c(Cl)c1)c1cccc(-c2ccc(F)cc2)[n+]1[O-] [Final product 115]
10.9

Supply reported IC50 belonging to this molecule: COc1ccc2ncnc(Nc3ccc(NC(=O)c4cccc(-c5ccc(F)cc5)[n+]4[O-])cc3F)c2c1O[C@H](C)CO [Final product 181]
29.2

Tell me measured IC50 for C[C@H](CO)Nc1n[nH]c2nccc(Oc3ccc(NC(=O)c4cccc(-c5ccc(F)cc5)[n+]4[O-])cc3Cl)c12 [Final product 97] please.
20.8

---

- test-system: MET D1228N (Homo sapiens, UniProt P08581, D1228N)
- Construct: purchased Signalchem M52-12IG
- method-notes: Kinase inhibition experiment (HTRF KinEASE-TK kit), mutant MET D1228N
- Type: biochemical
- experimental-conditions: 10 concentrations, 3-fold dilution
outcome-measure: IC50
Your answer should be a number followed by the unit of measure.

Completed entries (count: 2):
[[record]]
compound = "O=C(Nc1ccc(Oc2ccnc3[nH]nc(N4CC(CO)C4)c23)c(F)c1)c1cccc(-c2ccc(F)cc2)[n+]1[O-]"
endpoint_value = "20.5 nM"

[[record]]
compound = "O=C(Nc1ccc(Oc2ccnc3[nH]nc(NCC(O)CO)c23)c(F)c1)c1cccc(-c2ccc(F)cc2)[n+]1[O-] (stereo not shown)"
endpoint_value = "20.1 nM"


Determine from records and report IC50 for C[C@H](CO)Nc1n[nH]c2nccc(Oc3cc(F)c(NC(=O)c4ccc(Cl)c(-c5ccc(F)cc5)[n+]4[O-])cc3Cl)c12
29.4 nM

Name the recorded IC50 of the item CC[C@@H](CO)Nc1n[nH]c2nccc(Oc3ccc(NC(=O)c4cccc(-c5ccc(F)cc5)[n+]4[O-])cc3F)c12 in your answer.
30 nM

All values here come from patent US20250092033A1.
